Target: human CXCR3 (Homo sapiens, UniProt P49682)
Construct: expressed in transfected cells; host or cells: CHO cells (membrane preparation)
Sequence (P49682 1-368): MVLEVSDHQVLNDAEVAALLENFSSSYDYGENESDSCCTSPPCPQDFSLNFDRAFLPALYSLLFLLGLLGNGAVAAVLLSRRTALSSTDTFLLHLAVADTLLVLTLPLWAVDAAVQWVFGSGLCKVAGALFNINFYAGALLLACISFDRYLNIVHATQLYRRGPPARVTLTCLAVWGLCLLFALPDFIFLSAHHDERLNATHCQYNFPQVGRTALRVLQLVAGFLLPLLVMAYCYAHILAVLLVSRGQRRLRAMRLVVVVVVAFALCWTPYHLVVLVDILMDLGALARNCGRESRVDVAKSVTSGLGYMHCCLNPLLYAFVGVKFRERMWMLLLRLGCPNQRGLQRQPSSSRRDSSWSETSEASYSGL
Assay: [35S]GTPγS exchange assay, CXCR3 receptor inhibition (hI-TAC-induced GTPγS-binding)
Format: biochemical
Conditions: -log IC50 (molar) inhibiting 50% of specific I-TAC-induced GTPγS-binding; membranes of human CXCR3-transfected CHO cells; read-out: pIC50 (converted)
Assay Endpoint: IC50 (µM)

Some solved cases for reference:
[[record]]
compound = "O=C1CCC(c2ccc(F)cc2)(C2CCN(Cc3ccc(Br)cc3)CC2)C(=O)N1 (centres unmarked)"
recorded_value = 1

[[record]]
compound = "COC(=O)CCN1C(=O)CCC(c2ccccc2)(C2CCN(Cc3ccc(Br)cc3)CC2)C1=O (centres unmarked)"
recorded_value = 3.98

[[record]]
compound = "O=C1CCC(c2ccc(F)cc2)(C2CCN(Cc3ccc(Cl)cc3)CC2)CN1 (centres unmarked)"
recorded_value = 0.794

[[record]]
compound = "O=C1CCC(c2ccc(F)cc2)(C2CCN(Cc3ccc(C(F)(F)F)cc3)CC2)C(=O)N1 (centres unmarked)"
recorded_value = 3.98

[[record]]
compound = "O=C1CCC(c2ccccc2)(C2CCN(Cc3ccc(Cl)c(F)c3)CC2)C(=O)N1 (centres unmarked) [Compound 31]"
recorded_value = 0.2


(a) O=C1CCC(c2ccc(C(=O)O)cc2)(C2CCN(Cc3ccc(F)c(Cl)c3)CC2)C(=O)N1 (centres unmarked)
(b) O=C1CCC(c2cccc(Cl)c2)(C2CCN(Cc3ccc(Cl)cc3Cl)CC2)C(=O)N1 (centres unmarked)
// which entry has the larger IC50 value, a or b ? Returns: label corresponding to the selected item.
a
